- Assay overview: Quantitative High-Throughput drug screen in 47 multiple myeloma cell lines against the NCATS MIPE library collection: INA6_PLB cell viability assay (AID 1918965; also: nearly all actives have a fitted effect of over 55% in size)
- Condition: INA6 myeloma viability, CellTiter-Glo ATP luminescence, 48 h; series mostly up to 45.8 µM
Results filed as inconclusive are left out. Active and inactive are the calls of the source. Calls follow the shape of the dose curve; as a rule, active = well fitted cell-killing curve with a large enough effect; inconclusive = small, poorly fitted or top-dose-only effect, or effect the other way; inactive = no such curve, though single readings can be large or run the other way.
Classes used: active, inactive

• COc1cc(C(C)=O)ccc1OCCCN1CCC(c2noc3cc(F)ccc23)CC1 = active
• CC1(C)C(=O)N(CCN2CCC(C(=O)c3ccc(F)cc3)CC2)c2ccccc21 = active
• Cc1cc(C2CCCCC2)n(O)c(=O)c1 = active
• CC1(C)CCC(C)(C)c2cc(NC(=O)c3ccc(C(=O)O)cc3)ccc21 = active
• Clc1ccc2c(N3CCN(CCCN4CCN(c5ccnc6cc(Cl)ccc56)CC4)CC3)ccnc2c1 = inactive
• Clc1ccc(C(Cn2ccnc2)OCc2ccc(Sc3ccccc3)cc2)c(Cl)c1 (centres undefined) = active
• Cc1cc(=O)c2c(O)c3c(O)cc(=O)c4c3c3c(cc(O)c1c23)C(C)(C)C=4O = active
• O=C(CCc1ccc(O)cc1)c1c(O)cc(O)cc1O = active
• Nc1ccc(S(N)(=O)=O)cc1 = inactive
• COc1ccc2cc([C@H](C)C(=O)O)ccc2c1 = inactive
• Cc1ccc(Nc2nccc(N(C)c3ccc4c(C)n(C)nc4c3)n2)cc1S(N)(=O)=O = active
• COc1ccccc1N1CCN(CCN(C(=O)C2CCCCC2)c2ccccn2)CC1 = active
• Nc1nc(N)c(N=O)c(OCC2CCCCC2)n1 = active
• CCc1nc(N)nc(N)c1-c1ccc(Cl)cc1 = active
• Cc1cc(=O)oc2cc(O)ccc12 = inactive
• CCOC(=O)C1=C[C@@H](OC(CC)CC)[C@H](NC(C)=O)[C@@H](N)C1 = inactive
• CCCCc1ccc2nc(NC(=O)OC)[nH]c2c1 = active
• Nc1ncn([C@H]2C[C@H](O)[C@@H](CO)O2)c(=O)n1 = active
• Nc1cc(C(Cl)=C(Cl)Cl)c(S(N)(=O)=O)cc1S(N)(=O)=O = inactive

====

- Assay overview: Quantitative High-Throughput drug screen in 47 multiple myeloma cell lines against the NCATS MIPE library collection: XG1_PLB cell viability assay (AID 1919866); also: nearly all actives have a fitted effect of over 35% in size
- Condition: CellTiter-Glo ATP, 48 h; series mostly up to 45.8 µM
Results filed as inconclusive are left out. Active and inactive are the calls of the source. Calls come from the whole dose curve; as a rule, active = well fitted cell-killing curve with a large enough effect; inconclusive = small, poorly fitted or top-dose-only effect, or effect the other way; inactive = no such curve, though single readings can be large or run the other way.
Classes used: TRUE = active, FALSE = inactive

- O=C1NC(=O)C(c2ccccc2[N+](=O)[O-])=C1Nc1ccc(O)c(Cl)c1: TRUE
- CCC1=C(C)CN(C(=O)NCCc2ccc(S(=O)(=O)NC(=O)NC3CCC(C)CC3)cc2)C1=O (stereo unspecified): FALSE
- O=C(NOCC1CC1)c1ccc(F)c(F)c1Nc1ccc(I)cc1Cl: TRUE
- O=c1c(O)c(-c2cc(O)c(O)c(O)c2)oc2cc(O)cc(O)c12: FALSE
- CCN(CCO)CCCC(C)Nc1ccnc2cc(Cl)ccc12 (stereo unspecified): FALSE
- O=C(c1ccccc1)c1ccc2n1CCC2C(=O)O (stereo unspecified): TRUE
- Nc1nc(OCc2ccccc2)c2[nH]cnc2n1: TRUE
- CC(S)C(=O)NCC(=O)O (stereo unspecified): FALSE
- C[C@@H](N)C1CCC(C(=O)Nc2ccncc2)CC1 (stereo partly specified): TRUE
- COC(=O)C1=C(C)NC(C)=C(C(=O)OC(C)C)C1c1cccc2nonc12 (stereo unspecified): TRUE
- CCOC(=O)c1c(C)n(C)c2ccc(O)cc12: TRUE
- CCCCC(CC)COC(=O)C(C#N)=C(c1ccccc1)c1ccccc1 (stereo unspecified): FALSE
- Oc1ccc2ccccc2c1SSc1c(O)ccc2ccccc12: TRUE
- CC1=C(C(=O)O)N2C(=O)[C@@H](NC(=O)[C@H](N)C3=CCC=CC3)[C@H]2SC1: FALSE
- Cc1cccc(C#Cc2ccccc2)n1: TRUE
- CCOc1cc(CC(=O)N[C@@H](CC(C)C)c2ccccc2N2CCCCC2)ccc1C(=O)O: FALSE
- C[C@H](Cn1cnc2c(N)ncnc21)OCP(=O)(O)O: FALSE
- CC(C)C[C@H](NC(=O)[C@H](Cc1ccccc1)NC(=O)c1cnccn1)B(O)O: TRUE
- Cc1c(C(=O)NN2CCCCC2)nn(-c2ccc(Cl)cc2Cl)c1-c1ccc(Cl)cc1: TRUE
- Clc1ccc2c(N3CCN(CCCN4CCN(c5ccnc6cc(Cl)ccc56)CC4)CC3)ccnc2c1: FALSE
- c1ccc2[nH]c(-c3cscn3)nc2c1: FALSE

All values here come from PubChem BioAssay (NCATS).
